- Test system: HCC78 cells having ROS1 fusion gene
- PROTOCOL_TEXT: HCC78 cell growth assay (CellTiter-Glo)
- Format: cell-based
- TEST_CONTEXT: Homo sapiens, HCC78, 72 h, 72 hours culture, 2% FBS medium, luminescence, four separate measurements; read-out: growth inhibitory effect on HCC78 cells having ROS1 fusion gene IC50
Where a name gives a salt, the structure may show the parent alone.
Measured IC50 of individual entries

COMPOUND	TEST_SYSTEM	IC50
NC1CCN(c2ccc(-c3cnc4ccc(OCc5cccc(F)c5)nn34)cc2)C1=O (stereo not shown)	HCC78 cells having ROS1 fusion gene	100 to 600 nM
C[C@@H](Nc1ccc2ncc(-c3ccc(OC[C@@H]4CCCN4)cc3)n2n1)c1ccccc1	HCC78 cells having ROS1 fusion gene	100 to 600 nM
CNCCCOc1ccc(-c2cnc3ccc(N[C@H](C)c4cccc(F)c4)nn23)cc1	HCC78 cells having ROS1 fusion gene	20 to 100 nM
C[C@@H](Oc1ccc2ncc(-c3ccc(OCC4CCNCC4)cc3)n2n1)c1cccc(F)c1	HCC78 cells having ROS1 fusion gene	100 to 600 nM
C[C@@H](Oc1ccc2ncc(-c3ccc(OC[C@@H]4CCN4)cc3)n2n1)c1cccc(F)c1 [Example 18, hydrochloride]	HCC78 cells having ROS1 fusion gene	20 to 100 nM
c1ccc(CNc2ccc3ncc(-c4ccc(OCC[C@@H]5CCCN5)cc4)n3n2)cc1	HCC78 cells having ROS1 fusion gene	20 to 100 nM

Value lookup for IC50; key = C[C@@H](Nc1ccc2ncc(-c3ccc(OCC(N)CO)cc3)n2n1)c1cccc(F)c1 (stereo partly shown) < 20 nM

###

- Tested on: HCC78 cells having ROS1 fusion gene
- PROTOCOL_TEXT: HCC78 cell growth assay (CellTiter-Glo)
- Assay type: cell-based
- TEST_CONTEXT: Homo sapiens, HCC78, 72 h, 72 hours culture, 2% FBS medium, luminescence, four separate measurements; read-out: growth inhibitory effect on HCC78 cells having ROS1 fusion gene IC50
pIC50: −log10 of the molar value.
Measured pIC50 of individual entries

Sample records with pIC50:
COMPOUND	TEST_SYSTEM	pIC50
CN(Cc1cncc(Cl)c1)c1ccc2ncc(-c3ccc(N4C[C@@H](N)CC4=O)cc3)n2n1 [Example 122]	HCC78 cells having ROS1 fusion gene	7.00 to 7.70
N[C@H]1CC(=O)N(c2ccc(-c3cnc4ccc(OCc5cccc(F)c5)nn34)cc2)C1 [Example 76]	HCC78 cells having ROS1 fusion gene	7.00 to 7.70

From here, focus on the item given below.
Value lookup for pIC50; key = Fc1cccc(COc2ccc3ncc(-c4ccc(OC[C@@H]5CCCN5)cc4)n3n2)c1 [Example 12] 6.22 to 7.00

###

- System: HCC78 cells having ROS1 fusion gene
- PROTOCOL_TEXT: HCC78 cell growth assay (CellTiter-Glo)
- Format: cell-based
- TEST_CONTEXT: Homo sapiens, HCC78, 72 h, 72 hours culture, 2% FBS medium, luminescence, four separate measurements; read-out: growth inhibitory effect on HCC78 cells having ROS1 fusion gene IC50
pIC50: −log10 of the molar value.
Measured pIC50 of individual entries

MOLECULE	pIC50
C[C@@H](Nc1ccc2ncc(-c3cc(F)cc(OC[C@@H]4CCN4)c3)n2n1)c1cccc(F)c1	7.00 to 7.70
CC(Oc1ccc2ncc(-c3ccc(N4C[C@@H](N)CC4=O)cc3)n2n1)c1cncc(F)c1 (stereo partly drawn)	> 7.70

Value lookup for pIC50; key = "C[C@@H](Nc1ccc2ncc(-c3ccc(N4C[C@@H](N)CC4=O)c(F)c3)n2n1)c1cccc(F)c1" > 7.70

###

Measured IC50 of individual entries
- TEST_SYSTEM: ROS1 (Homo sapiens, UniProt P08922)
- Construct: purchased Carna Biosciences 08-163
- Sequence (P08922 28-2347): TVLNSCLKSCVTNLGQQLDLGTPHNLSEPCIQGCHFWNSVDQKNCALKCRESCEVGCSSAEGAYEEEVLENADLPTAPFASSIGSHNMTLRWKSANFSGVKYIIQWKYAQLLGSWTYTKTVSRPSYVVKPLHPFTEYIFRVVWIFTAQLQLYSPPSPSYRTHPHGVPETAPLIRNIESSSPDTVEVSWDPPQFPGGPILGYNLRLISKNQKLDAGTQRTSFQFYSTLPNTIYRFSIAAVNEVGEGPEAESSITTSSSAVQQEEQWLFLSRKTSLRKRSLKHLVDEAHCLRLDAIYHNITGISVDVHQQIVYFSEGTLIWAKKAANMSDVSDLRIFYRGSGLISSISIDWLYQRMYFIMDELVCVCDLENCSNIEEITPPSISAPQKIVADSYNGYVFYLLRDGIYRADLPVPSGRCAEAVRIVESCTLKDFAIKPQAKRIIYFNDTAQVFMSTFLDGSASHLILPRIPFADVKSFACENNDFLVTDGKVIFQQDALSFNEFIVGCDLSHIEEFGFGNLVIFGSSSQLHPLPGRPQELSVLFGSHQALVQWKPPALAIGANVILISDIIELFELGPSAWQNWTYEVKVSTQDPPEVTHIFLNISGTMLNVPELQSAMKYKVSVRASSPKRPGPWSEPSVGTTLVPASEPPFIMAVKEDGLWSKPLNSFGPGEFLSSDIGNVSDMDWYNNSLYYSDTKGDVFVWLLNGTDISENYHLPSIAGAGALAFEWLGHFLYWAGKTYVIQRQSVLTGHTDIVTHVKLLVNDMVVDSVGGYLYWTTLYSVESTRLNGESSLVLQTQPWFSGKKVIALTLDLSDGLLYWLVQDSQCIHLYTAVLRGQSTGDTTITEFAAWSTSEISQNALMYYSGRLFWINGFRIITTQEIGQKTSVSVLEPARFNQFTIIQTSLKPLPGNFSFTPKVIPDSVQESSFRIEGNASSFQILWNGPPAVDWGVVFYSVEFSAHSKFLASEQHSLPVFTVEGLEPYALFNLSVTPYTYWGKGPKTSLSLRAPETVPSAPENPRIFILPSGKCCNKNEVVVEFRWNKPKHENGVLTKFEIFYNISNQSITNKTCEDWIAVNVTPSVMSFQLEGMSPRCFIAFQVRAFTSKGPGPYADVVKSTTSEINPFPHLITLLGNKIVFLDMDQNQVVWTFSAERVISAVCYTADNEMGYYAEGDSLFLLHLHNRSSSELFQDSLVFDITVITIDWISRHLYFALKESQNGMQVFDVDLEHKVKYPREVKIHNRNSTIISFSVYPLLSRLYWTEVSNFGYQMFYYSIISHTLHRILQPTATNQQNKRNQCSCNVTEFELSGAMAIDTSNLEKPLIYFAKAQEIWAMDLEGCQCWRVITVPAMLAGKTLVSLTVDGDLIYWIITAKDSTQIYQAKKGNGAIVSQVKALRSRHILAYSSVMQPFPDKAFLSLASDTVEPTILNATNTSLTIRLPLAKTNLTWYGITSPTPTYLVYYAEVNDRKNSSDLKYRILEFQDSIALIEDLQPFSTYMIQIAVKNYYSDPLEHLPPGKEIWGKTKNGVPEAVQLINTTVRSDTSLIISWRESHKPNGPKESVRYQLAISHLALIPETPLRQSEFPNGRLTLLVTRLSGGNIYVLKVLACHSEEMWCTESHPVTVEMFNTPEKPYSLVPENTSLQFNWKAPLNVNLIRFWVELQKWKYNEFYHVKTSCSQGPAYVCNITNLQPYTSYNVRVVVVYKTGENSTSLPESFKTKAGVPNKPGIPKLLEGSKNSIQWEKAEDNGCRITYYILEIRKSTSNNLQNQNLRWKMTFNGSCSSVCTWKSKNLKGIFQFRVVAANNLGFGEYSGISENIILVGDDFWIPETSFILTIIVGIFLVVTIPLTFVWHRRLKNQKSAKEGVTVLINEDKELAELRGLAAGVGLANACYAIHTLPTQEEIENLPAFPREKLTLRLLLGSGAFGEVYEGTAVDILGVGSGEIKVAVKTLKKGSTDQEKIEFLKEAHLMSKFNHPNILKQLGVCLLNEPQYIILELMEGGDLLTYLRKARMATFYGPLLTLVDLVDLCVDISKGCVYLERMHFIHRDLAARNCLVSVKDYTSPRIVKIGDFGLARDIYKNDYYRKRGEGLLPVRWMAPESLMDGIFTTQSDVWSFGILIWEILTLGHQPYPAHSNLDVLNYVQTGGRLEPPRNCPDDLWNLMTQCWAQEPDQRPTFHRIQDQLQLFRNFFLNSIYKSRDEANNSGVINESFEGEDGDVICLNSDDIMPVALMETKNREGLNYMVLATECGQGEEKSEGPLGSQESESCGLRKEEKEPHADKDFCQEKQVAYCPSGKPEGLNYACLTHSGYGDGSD
- PROTOCOL_TEXT: ROS1 kinase inhibitory activity evaluation (mobility shift, EZ Reader II)
- Assay type: biochemical
- TEST_CONTEXT: ROS1 25 pg/μL, FL-Peptide 22 substrate, three separate measurements

COMPOUND	IC50
C[C@@H](Nc1ccc2ncc(-c3cccc(N4C[C@@H](N)CC4=O)c3)n2n1)c1cccc(F)c1 [Example 91]	1 to 10 nM
CN(Cc1cccc(F)c1)c1ccc2ncc(-c3ccc(OC[C@@H]4CCCN4)cc3)n2n1 [Example 10]	1 to 10 nM
C[C@@H](Nc1ccc2ncc(-c3ccc(OCCCN(C)C)cc3)n2n1)c1cccc(F)c1 [Example 70]	< 1 nM
Cc1ccc(F)cc1COc1ccc2ncc(-c3ccc(N4C[C@@H](N)CC4=O)cc3)n2n1 [Example 103]	1 to 10 nM
NCCOc1ccc(-c2cnc3ccc(OCc4cccc(F)c4)nn23)cc1 [Example 14]	1 to 10 nM

Value lookup for IC50; key = CNC(C)COc1ccc(-c2cnc3ccc(N[C@H](C)c4cccc(F)c4)nn23)cc1 (stereo partly drawn) [Example 38] < 1 nM

And the next one, CC(Oc1ccc2ncc(-c3ccc(N4C[C@@H](N)CC4=O)cc3)n2n1)c1cc(F)cnc1F (stereo partly drawn) [Example 106] ? < 1 nM

###

- TEST_SYSTEM: ROS1 (Homo sapiens, UniProt P08922)
- Construct: purchased Carna Biosciences 08-163
- PROTOCOL_TEXT: ROS1 kinase inhibitory activity evaluation (mobility shift, EZ Reader II)
- Assay type: biochemical
- TEST_CONTEXT: ROS1 25 pg/μL, FL-Peptide 22 substrate, three separate measurements
pIC50: −log10 of the molar value. Structures can show the parent of a compound that is named as a salt.
Measured pIC50 of individual entries

Sample records with pIC50:
COMPOUND	TEST_SYSTEM	pIC50
CN(Cc1cncc(F)c1)c1ccc2ncc(-c3ccc(N4C[C@@H](N)CC4=O)c(C#N)c3)n2n1	ROS1 (Homo sapiens, UniProt P08922)	7.22 to 8.00
C[C@@H](Nc1ccc2ncc(-c3ccc(OC[C@H](N)CO)cc3)n2n1)c1cccc(F)c1	ROS1 (Homo sapiens, UniProt P08922)	> 9.00
CC(Oc1ccc2ncc(-c3ccc(N4C[C@@H](N)CC4=O)cc3)n2n1)c1cncc(F)c1 (some centres unmarked)	ROS1 (Homo sapiens, UniProt P08922)	> 9.00
C[C@@H](Nc1ccc2ncc(-c3ccc(OC[C@@H]4CCCN4)c(C#N)c3)n2n1)c1cccc(F)c1	ROS1 (Homo sapiens, UniProt P08922)	> 9.00
CC(Oc1ccc2ncc(-c3ccc(N4C[C@@H](N)CC4=O)cc3)n2n1)c1cc(F)ccc1-n1nccn1 (some centres unmarked)	ROS1 (Homo sapiens, UniProt P08922)	> 9.00
C[C@@H](Nc1ccc2ncc(-c3cccc(OCCCN)c3)n2n1)c1cccc(F)c1	ROS1 (Homo sapiens, UniProt P08922)	8.00 to 9.00
CN(Cc1cccnc1)c1ccc2ncc(-c3ccc(N4C[C@@H](N)CC4=O)cc3)n2n1	ROS1 (Homo sapiens, UniProt P08922)	8.00 to 9.00
CN1CCC[C@H]1COc1cccc(-c2cnc3ccc(NCc4ccccc4)nn23)c1	ROS1 (Homo sapiens, UniProt P08922)	8.00 to 9.00

Value lookup for pIC50; key = C[C@@H](Oc1ccc2ncc(-c3ccc(OC[C@@H]4CCN4)cc3)n2n1)c1cccc(F)c1 [Example 18, hydrochloride] > 9.00

And the next one, NC1CC(=O)N(c2ccc(-c3cnc4ccc(NCc5ccccc5)nn34)cc2)C1 (centres unmarked) ? > 9.00

###

- TEST_SYSTEM: ROS1 (Homo sapiens)
- Construct: purchased Carna Biosciences 08-163
- PROTOCOL_TEXT: ROS1 autophosphorylation inhibitory activity evaluation (ADP-Glo)
- Type: biochemical
- TEST_CONTEXT: 200 nM inactive ROS1, ATP 1 mM, 25° C. 1.5 hours, ADP generated, four separate measurements
Measured IC50 of individual entries

Sample records with IC50:
STRUCTURE_AS_SMILES	READOUT	RESULT
C[C@H](N)COc1cccc(-c2cnc3ccc(N[C@H](C)c4cccc(F)c4)nn23)c1	IC50	< 20 nM
CCN(Cc1ccccc1)c1ccc2ncc(-c3ccc(N4C[C@@H](N)CC4=O)cc3)n2n1	IC50	20 to 100 nM
CC[C@@H](N)COc1ccc(-c2cnc3ccc(N[C@H](C)c4cccc(F)c4)nn23)cc1	IC50	< 20 nM
CN(Cc1ccccc1)c1ccc2ncc(-c3ccc(N4C[C@@H](N)CC4=O)cc3)n2n1	IC50	20 to 100 nM
C[C@@H](Oc1ccc2ncc(-c3ccc(N4C[C@@H](N(C)C)CC4=O)cc3)n2n1)c1cccc(F)c1	IC50	20 to 100 nM
CN[C@H]1CC(=O)N(c2ccc(-c3cnc4ccc(O[C@H](C)c5cncc(F)c5)nn34)cc2)C1	IC50	20 to 100 nM

Identify the measured IC50 of "CCN(Cc1cccc(F)c1)c1ccc2ncc(-c3ccc(N4C[C@@H](N)CC4=O)cc3)n2n1" for ROS1 (Homo sapiens). < 20 nM

And the next one, "c1ccc(CNc2ccc3ncc(-c4ccc(OCC[C@@H]5CCCN5)cc4)n3n2)cc1" ? 20 to 100 nM

And the next one, "CN(Cc1cc(F)ccc1Cl)c1ccc2ncc(-c3ccc(N4C[C@@H](N)CC4=O)cc3)n2n1" ? 20 to 100 nM

And the next one, "C[C@@H](Nc1ccc2ncc(-c3ccc(OC4CNC4)cc3)n2n1)c1cccc(F)c1" ? < 20 nM

And the next one, "CN(Cc1cccc(F)c1)c1ccc2ncc(-c3ccc(N4C[C@@H](N)CC4=O)cc3)n2n1" ? < 20 nM
